The reported measurements were obtained from ChEMBL document CHEMBL5665443.

Measured inhibition, listed per entry.
target-of-assay: Single-strand selective monofunctional uracil DNA glycosylase (Homo sapiens)
Sequence (whole entry): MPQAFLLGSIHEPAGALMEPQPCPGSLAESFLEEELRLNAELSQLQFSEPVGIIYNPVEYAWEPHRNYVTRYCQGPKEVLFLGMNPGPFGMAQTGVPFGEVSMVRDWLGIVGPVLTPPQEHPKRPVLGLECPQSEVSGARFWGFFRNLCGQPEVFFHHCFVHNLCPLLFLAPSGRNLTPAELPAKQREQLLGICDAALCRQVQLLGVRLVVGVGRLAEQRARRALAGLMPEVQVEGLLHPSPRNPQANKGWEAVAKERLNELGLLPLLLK
measurement-setup: Compound Concentration 10.0 uM, Hit No
Description: Inhibition of SMUG1 by quantifying inhibition of SMUG1-mediated cleavage and dissociation of quenched duplex DNA oligonucleotides, measured as fluorescence at 594 nm. To generate a functional strand incision and increase turn-over this assay is coupled to APE1.
Return type: number; implicit unit %.

Some solved entries appear below for comparison.
compound=C=CC(=O)Nc1cccc(C(=O)Nc2ccc(Nc3cc(-c4[nH]c(S)nc4C)ccn3)cc2)c1 quantity_name=inhibition reported=16.9
compound=CCc1ccc(N(CC(C)C)S(=O)(=O)c2ccc(OCC3CCOCC3)c(CO)c2)cc1 quantity_name=inhibition reported=18.3
compound=Cc1cnc(-c2cc(Cl)ccc2F)cc1-n1c(=O)n(CC(N)=O)c2cnccc21 quantity_name=inhibition reported=13.4
compound=CCCCC[C@H](O)/C=C/[C@H]1[C@H](O)CC(=O)[C@@H]1CCCCCCC(=O)O quantity_name=inhibition reported=-7.25
compound=N#CN1CC[C@H](C(=O)Nc2nc3c(s2)CN(C(=O)CN=[N+]=[N-])CC3)C1 quantity_name=inhibition reported=6.53

Q: For COc1ccc(CC(=O)NCc2ccccc2-c2ccccc2C(=O)NCc2ccc(F)cc2F)cc1 , what is its reported inhibition?
Result: 11

Q: Same thing, different compound: O=C(O)Cc1cccc(OCCCN(Cc2cccc(C(F)(F)F)c2Cl)CC(c2ccccc2)c2ccccc2)c1
Result: 33.2

Q: Same thing, different compound: COc1ccc(NC(=O)[C@@H]2C[C@H](C)CC[C@H]2C(C)C)cc1
Result: 11.3

Q: Same thing, different compound: CC(C)(O)CNc1ncc(-c2ccnc(Nc3ccnc(Cl)c3)n2)c(CC2CC2)n1
Result: 21.2

Q: Same thing, different compound: CC[C@H](C(=O)Nc1ccccc1N1CCCC1)c1ccccc1
Result: 1.62

Q: Same thing, different compound: COCCOCCn1nc2c(c1C)-c1c(Cl)ccc3c1c(C)c(C(=O)O)n3CCCOc1cc(cc3c(F)c(Cl)ccc13)CCc1cc(nn1C)CSC2
Result: 17.3

Q: Same thing, different compound: Nc1nc(NCCc2ccc(O)cc2)nc2nc(-c3ccco3)nn12
Result: -6.72

Q: Same thing, different compound: Nc1ncnc2c1ncn2[C@@H]1O[C@H](COP(=O)(O)OP(=O)(O)O)[C@@H](O)[C@H]1O
Result: -0.127

Q: Same thing, different compound: CN1CCN(c2ccnc(NCCc3ccccc3)n2)CC1
Result: 8.97

Q: Same thing, different compound: COc1cc2nc(N3CCN(C(=O)C4CCCO4)CC3)nc(N)c2cc1OC (stereo not given)
Result: 3.65

Q: Same thing, different compound: Cc1nnc2n1-c1sc(CCC(=O)N3CCOCC3)cc1C(c1ccccc1Cl)=NC2
Result: -7.88

Q: Same thing, different compound: Cc1nc2sccn2c(=O)c1CCN1CCC(=C(c2ccc(F)cc2)c2ccc(F)cc2)CC1
Result: -6.91

Q: Same thing, different compound: C(#Cc1cccc(CN2CCOCC2)c1)CCN1CCCCC1
Result: -7.54

Q: Same thing, different compound: O=S(=O)(Nc1ccc(C(O)(C(F)(F)F)C(F)(F)F)cc1)c1cccs1
Result: 19.9

Q: Same thing, different compound: CCOC(=O)N1CCC(CN(Cc2ccc(Cl)cc2)Cc2ccc([N+](=O)[O-])s2)C1 (stereo not given)
Result: 16.2

Q: Same thing, different compound: COc1cc(Nc2ccc([N+](=O)[O-])cc2C(=O)O)cc2ccccc12
Result: 23.2

Q: Same thing, different compound: CCCCCNC(=O)NS(=O)(=O)c1cc([N+](=O)[O-])ccc1NC1CCCCC1
Result: 13.9

###

Measured inhibition, listed per entry.
target-of-assay: Endonuclease III-like protein 1 (Homo sapiens) (UniProt P78549);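 further: enzyme assay tracking NTHL1 cutting and release of a quenched double-stranded DNA oligo substrate, read as fluorescence at 594 nm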
Sequence (P78549 whole entry): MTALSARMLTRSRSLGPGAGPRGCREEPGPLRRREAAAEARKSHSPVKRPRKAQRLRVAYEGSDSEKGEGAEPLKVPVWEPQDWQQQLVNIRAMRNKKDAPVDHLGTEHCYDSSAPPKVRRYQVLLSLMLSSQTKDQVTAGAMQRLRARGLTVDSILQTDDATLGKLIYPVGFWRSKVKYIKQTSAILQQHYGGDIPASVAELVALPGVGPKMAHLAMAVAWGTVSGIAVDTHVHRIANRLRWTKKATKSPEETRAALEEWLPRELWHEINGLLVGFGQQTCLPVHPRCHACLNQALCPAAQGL
measurement-setup: Compound Concentration 10.0 uM, Hit No
Description: Inhibition of NTHL1 by quantifying inhibition of NTHL1-mediated cleavage and dissociation of quenched duplex DNA oligonucleotides, measured as fluorescence at 594 nm.
Return type: number; implicit unit %.

chemical_smiles=CC(C)Oc1ccc(-c2nc(-c3cccc4c3CC[C@@H]4NCCO)no2)cc1C#N reported=1.19
chemical_smiles=Cc1c(-c2cc(-c3ccccc3Cl)no2)cnn1C1CCNCC1 reported=12.9
chemical_smiles=C[C@H](C[C@H](N)C(=O)O)C(=O)O reported=-6.04

Q: For O=C(NCc1ccccc1)c1ccc(S(=O)(=O)NCc2ccccc2)cc1 , what is its reported inhibition?
Result: -8.98

Q: Same thing, different molecule: CC(=O)Nc1ncc(CN2CCC[C@H](Cc3cc(C)nc(C)c3)C2)s1
Result: -3.26

Q: Same thing, different molecule: CC(C)(O)c1cnc(N2C[C@@]3(CCC[C@](C)(Cn4cnc5ccc(C#N)cc54)C3)OC2=O)cn1
Result: 8

Q: Same thing, different molecule: CN(Cc1cccc(F)c1CNc1cc(F)c(S(=O)(=O)Nc2cscn2)c(F)c1)C(C)(C)C
Result: 18.7

Q: Same thing, different molecule: C[C@]1(O)C[C@@H](c2nc(-c3ccc4ccc(-c5ccccc5)nc4c3)c3c(N)nccn32)C1
Result: 10.6

Q: Same thing, different molecule: CC[C@H]1[C@@H](O)[C@@H]2[C@H](CC[C@]3(C)[C@@H]([C@H](C)CCC(=O)O)CC[C@@H]23)[C@@]2(C)CC[C@@H](O)C[C@@H]12
Result: 1.34

###

target-of-assay: Single-strand selective monofunctional uracil DNA glycosylase (Homo sapiens) (UniProt Q53HV7);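 further: enzymatic SMUG1 assay coupled with APE1, reading fluorescence at 594 nm released when a quenched double-stranded DNA oligonucleotide substrate is cleaved and separated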
measurement-setup: Compound Concentration 10.0 uM, Hit No
quantity-name: inhibition

Some solved entries appear below for comparison.
molecule=CC(C)(O)[C@H](F)CN1Cc2cc(NC(=O)c3cnn4cccnc34)c(N3CCOCC3)cc2C1=O reported=15.8%
molecule=CNc1nc(NCc2ccc(NS(C)(=O)=O)cc2Cl)cc(-c2ccccn2)n1 reported=11.2%
molecule="Cc1ccc(C(C)(O)c2nc3ccccc3s2)c(C)c1 (stereo not given)" reported=9.99%
molecule=CCCCc1nc(Cl)c(CO)n1Cc1ccc(-c2ccccc2-c2nnn[nH]2)cc1 reported=-6.19%

Q: For C=CC(=O)N1CCC([C@@H]2CCNc3c(C(N)=O)c(-c4ccc(Oc5ccccc5)cc4)nn32)CC1 , what is its reported inhibition?
Result: 20.1%

###

target-of-assay: Adenine DNA glycosylase (Homo sapiens);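 further: human MUTYH activity read as 594 nm fluorescence from cleavage and release of a quenched DNA duplex, coupled with APE1 for strand incision, lower signal meaning inhibition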
Sequence (whole entry): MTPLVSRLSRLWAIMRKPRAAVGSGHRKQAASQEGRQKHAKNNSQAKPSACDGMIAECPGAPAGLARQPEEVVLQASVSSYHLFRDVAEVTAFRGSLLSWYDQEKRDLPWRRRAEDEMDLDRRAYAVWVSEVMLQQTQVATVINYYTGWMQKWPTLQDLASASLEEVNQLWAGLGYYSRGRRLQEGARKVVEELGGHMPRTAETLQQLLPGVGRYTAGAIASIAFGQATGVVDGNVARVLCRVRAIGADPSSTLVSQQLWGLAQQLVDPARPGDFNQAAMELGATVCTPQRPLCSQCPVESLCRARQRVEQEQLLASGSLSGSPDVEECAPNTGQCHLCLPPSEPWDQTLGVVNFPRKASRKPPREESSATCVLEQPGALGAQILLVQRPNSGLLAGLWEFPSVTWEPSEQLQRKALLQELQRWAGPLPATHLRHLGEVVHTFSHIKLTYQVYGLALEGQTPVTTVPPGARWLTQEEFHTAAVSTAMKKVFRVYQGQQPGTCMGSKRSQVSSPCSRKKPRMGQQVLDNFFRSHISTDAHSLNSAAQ
measurement-setup: Compound Concentration 10.0 uM, Hit No
Description: Inhibition of MUTYH by quantifying inhibition of MUTYH-mediated cleavage and dissociation of quenched duplex DNA oligonucleotides, measured as fluorescence at 594 nm. To generate a functional strand incision and increase turn-over this assay is coupled to APE1.
Measured inhibition, listed per entry.
Return type: number; implicit unit %.

Some solved entries appear below for comparison.
compound=O=C(O)CCCc1cc2cc(Cl)ccc2n1S(=O)(=O)c1ccc2ncsc2c1 target_of_assay="Adenine DNA glycosylase (Homo sapiens)" quantity_name=inhibition unit_of_measure=% reported=-4.2
compound=NC(N)=Nc1nc(CSCC/C(N)=N/S(N)(=O)=O)cs1 target_of_assay="Adenine DNA glycosylase (Homo sapiens)" quantity_name=inhibition unit_of_measure=% reported=21.8
compound=COc1ccc(NC(=O)[C@@H]2C[C@H](C)CC[C@H]2C(C)C)cc1 target_of_assay="Adenine DNA glycosylase (Homo sapiens)" quantity_name=inhibition unit_of_measure=% reported=-7.01
compound=N=C(N)NCCSC(=N)N target_of_assay="Adenine DNA glycosylase (Homo sapiens)" quantity_name=inhibition unit_of_measure=% reported=-5.42
compound=N#Cc1c(O)nc(SCc2cccc(F)c2F)nc1C1CC1 target_of_assay="Adenine DNA glycosylase (Homo sapiens)" quantity_name=inhibition unit_of_measure=% reported=43.4
compound=Cc1cnc(-c2cc(Cl)ccc2F)cc1-n1c(=O)n(CC(N)=O)c2ccccc21 target_of_assay="Adenine DNA glycosylase (Homo sapiens)" quantity_name=inhibition unit_of_measure=% reported=-6.05
compound=O=c1cccc2n1C[C@@H]1CNC[C@H]2C1 target_of_assay="Adenine DNA glycosylase (Homo sapiens)" quantity_name=inhibition unit_of_measure=% reported=43.9
compound=CNC(=O)[C@H]1O[C@@H](n2cnc3c(NCc4cccc(I)c4)ncnc32)[C@H](O)[C@@H]1O target_of_assay="Adenine DNA glycosylase (Homo sapiens)" quantity_name=inhibition unit_of_measure=% reported=14.2
compound=NC[C@@H]1O[C@H](C23CC4CC(CC(C4)C2)C3)Cc2c1ccc(O)c2O target_of_assay="Adenine DNA glycosylase (Homo sapiens)" quantity_name=inhibition unit_of_measure=% reported=23.1
compound=NCCc1c[nH]cn1 target_of_assay="Adenine DNA glycosylase (Homo sapiens)" quantity_name=inhibition unit_of_measure=% reported=10.5

Q: For CCC(=N\O)/C(C)=C/c1ccc(F)c(C)c1 , what is its reported inhibition?
Result: -0.87

Q: Same thing, different compound: COc1c(Nc2ccc(S(C)(=O)=O)nc2C)ncnc1OC1CCN(C(=O)OC(C)C)CC1
Result: 16.4

Q: Same thing, different compound: Cc1ccc(Cn2nc(C(=O)N[C@@H]3C(C)(C)[C@@H]4CC[C@@]3(C)C4)cc2-c2ccc(Cl)c(C)c2)cc1
Result: -0.363
